System: IGROV1 ovarian
Experiment: NCI-60 one-dose screen, 48 h
Conditions: 10 µM unless noted
Procedure: Growth inhibition of the IGROV1 human tumor cell line is measured as a screen for anti-cancer activity. Cells are grown in 96 well plates and exposed to the test compound for 48 hours. Compounds are tested at a single concentration, which is 10^-5 M for most compounds. The reported endpoint is percent growth (GI% or GIPRCNT), where numbers from 0 - 100% represent growth inhibition, and numbers from -100% - 0 represent cell death. For example, a value of 40 represents 60% growth inhibition. […]
Compounds without any hit were thinned out: in the full panel of roughly 83,000, 20% have a hit. The source made the active and inactive calls. Rule for the calls: active = growth percent below 10; inactive = the rest.
Choose one outcome from this list and give only that: active, inactive

Incoming: How did this test come out for `COc1ccc(C(=O)c2sc3nc4c(cc3c2N)CCCC4)cc1OC` ?
Outgoing: inactive

Incoming: How did this test come out for `NC1=CC(=O)C(=O)c2ccccc21` ?
Outgoing: inactive

Incoming: How did this test come out for CCN(CC)CCCC(C)NCCCNc1cccc2cccnc12 (stereo not given) ?
Outgoing: inactive

Incoming: How did this test come out for `Cc1csc2ccc(Cl)cc12` ?
Outgoing: inactive

Incoming: How did this test come out for `CC1=C(NCCN2CCCC2)C(=O)c2c(OCc3cccc(Cl)c3)cccc2C1=O` ?
Outgoing: inactive

Incoming: How did this test come out for COc1ccc2nc3cc(Cl)ccc3c(NCCNCC(O)CO)c2c1 (stereo not given) ?
Outgoing: inactive

Incoming: How did this test come out for `CN1CCN(Cc2ccc(NC(=O)c3cncc(C#Cc4c(N)ncc5ccc(C#N)cc45)c3)cc2C(F)(F)F)CC1` ?
Outgoing: active

Incoming: How did this test come out for `CSc1nc(NCCCNc2ccnc3cc(Cl)ccc23)cc(-c2ccccc2)n1` ?
Outgoing: inactive

Incoming: How did this test come out for `C=C(C[n+]1ccccc1)[C@@H]1CC[C@]2(C(=O)OC)CC[C@]3(C)[C@H](CC[C@@H]4[C@@]5(C)CC[C@H](O)C(C)(C)[C@@H]5CC[C@]43C)[C@@H]12` ?
Outgoing: inactive

Incoming: How did this test come out for `COc1ccc(S(=O)(=O)NCCCNc2cc(-c3c(-c4cccc(OC)c4)nc4sccn34)ccn2)cc1` ?
Outgoing: inactive

* * *

Tested on: ACHN renal
Assay: NCI-60 one-dose screen, 48 h (100 = growth as untreated, 0 = no growth, -100 = all killed)
Settings: 10 µM unless noted
About 83,000 compounds went through this panel and 20% of them were active in at least one assay; those are over-represented in the sample as a whole.
metric: growth (%)
Supply the numeric figure in %, leaving out any unit text.

{"compound_smiles": "CC/C=C\\C[C@H](O)C/C=C1/C(=O)C=C[C@@H]1C/C=C\\CCCC(=O)NC(C)C", "recorded_measurement": -82.5}
{"compound_smiles": "CCN1CCN(Cc2ccc(NC(=O)Nc3nc4ccc(Oc5ccnc(C(=O)NC)c5)cc4s3)cc2C(F)(F)F)CC1", "recorded_measurement": -84.5}
{"compound_smiles": "O=C(O)c1ccc2c(c1Sc1ccccc1)C(=O)c1ccccc1C2=O", "recorded_measurement": 95.3}

Incoming: API: value(readout=growth, system=ACHN renal) for record `O=C(CCN1CCOCC1)Nc1ccc(Cn2nnc3c2C(=O)c2nnn(Cc4ccc(NC(=O)CCN5CCOCC5)cc4)c2C3=O)cc1`
Outgoing: 96.6

* * *

Tested on: HOP-62 NSCLC
Experiment: NCI-60 one-dose screen, 48 h (100 = growth as untreated, 0 = no growth, -100 = all killed)
Settings: 10 µM unless noted
This is part of a sample that, as a whole, favours compounds with a hit. Of some 83,000 tested, about 20% had one in any assay.
metric: growth (%)
Supply the numeric figure in %, leaving out any unit text.

{"compound_smiles": "COc1ccc(-c2cn3c(-c4ccc(OC)cc4)cnc3c(Oc3ccc4c(C)cc(=O)oc4c3)n2)cc1", "growth [%]": 40.9}
{"compound_smiles": "COc1ccc(S(=O)(=O)NCCCNc2nccc(-c3c(-c4cccc(N)c4)nc4sccn34)n2)cc1", "growth [%]": 117}
{"compound_smiles": "CC/C(=C(\\c1ccc(O)cc1)c1ccc(OCCN(C)CCN(C)C(=O)CCCCC(=O)c2c(C)[nH]c(/C=C3\\N=C(c4ccc[nH]4)C=C3OC)c2C)cc1)c1ccccc1", "growth [%]": 81}

Incoming: What does the data say about its growth? Entry: `CCCCNc1ccc2c3c1cccc3c(=O)n1c3ccccc3nc21`
Outgoing: 81.9

* * *

Test system: LOX IMVI melanoma
Test: NCI-60 one-dose screen, 48 h
Conditions: 10 µM unless noted
This is part of a sample that, as a whole, favours compounds with a hit. Of some 83,000 tested, about 20% had one in any assay. Active and inactive are the calls of the source. Rule for the calls: active = growth percent below 10; inactive = the rest.
Choose one outcome from this list and give only that: 1.0 = active, 0.0 = inactive

Observe how each entry below is paired with its result.
{"compound": "Nc1nc(SCc2ccccc2)c2ncn(C3CCCC3)c2n1", "category": 1.0}
{"compound": "CC#CC#Cc1cccc(=O)o1", "category": 0.0}
{"compound": "O=C1c2cc3c(cc2-c2c1c1cc(Cl)c(Cl)cc1c(=O)n2C[C@H](O)CO)OCO3", "category": 1.0}
{"compound": "CCN(CC)CCCNc1cc(OC)cc2nc3cc(Cl)ccc3nc12", "category": 1.0}
{"compound": "O=C(C[C@@H](C(=O)NCc1cccc(C(F)(F)F)c1)N1C(=O)[C@@H](N2C(=O)OC[C@@H]2c2ccccc2)[C@H]1/C=C/c1ccccc1)NC1CCN(Cc2ccccc2)CC1", "category": 0.0}
{"compound": "CCOC(=O)C12CCCC1=CC(=O)CC2 (stereo not given)", "category": 0.0}
{"compound": "Cc1nc2nc(N)nc(N)c2nc1C", "category": 0.0}
{"compound": "COc1cc(NCCCCN=C(N)NC(N)=NC(C)C)c2ncccc2c1", "category": 0.0}

Incoming: How did this test come out for `O=C1/C(=C/c2ccc(F)cc2)CN(C(=O)CCN2CCC(=NO)CC2)C/C1=C\c1ccc(F)cc1` ?
Outgoing: 1.0

Incoming: How did this test come out for `CCOC(=O)c1ccc2c(c1)nc(/C=C/c1ccc(Cl)cc1)n2-c1cc(C(C)(C)C)[nH]n1` ?
Outgoing: 0.0

* * *

Tested on: OVCAR-4 ovarian
Assay: NCI-60 one-dose screen, 48 h (100 = growth as untreated, 0 = no growth, -100 = all killed)
Conditions: 10 µM unless noted
Procedure: Growth inhibition of the OVCAR-4 human tumor cell line is measured as a screen for anti-cancer activity. Cells are grown in 96 well plates and exposed to the test compound for 48 hours. Compounds are tested at a single concentration, which is 10^-5 M for most compounds. The reported endpoint is percent growth (GI% or GIPRCNT), where numbers from 0 - 100% represent growth inhibition, and numbers from -100% - 0 represent cell death. For example, a value of 40 represents 60% growth inhibition. […]
This is part of a sample that, as a whole, favours compounds with a hit. Of some 83,000 tested, about 20% had one in any assay.
Catalogue of compounds with associated growth
Supply the numeric figure in %, leaving out any unit text.

Recorded results for 4 compounds are shown here.
{"compound_smiles": "c1ccc2sc(SCCCn3ccnc3)nc2c1", "measured_on": "OVCAR-4 ovarian", "recorded_measurement": 93.2}
{"compound_smiles": "CC/C=C\\C[C@H](F)C/C=C1/C(=O)C=C[C@@H]1C/C=C\\CCCC(=O)OC", "measured_on": "OVCAR-4 ovarian", "recorded_measurement": 24.2}
{"compound_smiles": "CC[C@H](Nc1ncnc(N)c1C(N)=O)c1nc2cccc(NCc3ccc(C(=O)NO)cc3)c2c(=O)n1-c1ccccc1", "measured_on": "OVCAR-4 ovarian", "recorded_measurement": 99}
{"compound_smiles": "CCN(CC)CCCCNc1ccc(NCCCCN(CC)CC)c2c1C(=O)c1ccccc1C2=O", "measured_on": "OVCAR-4 ovarian", "recorded_measurement": 84.1}

Please look at the following compound next.
Incoming: What does the data say about its growth? Entry: `CNC(=O)c1cc(Oc2ccc3nc(NC(=O)Nc4ccc(CN5CCOCC5)c(C(F)(F)F)c4)sc3c2)ccn1`
Outgoing: 20

* * *

Test system: BT-549 breast
Experiment: NCI-60 one-dose screen, 48 h (100 = growth as untreated, 0 = no growth, -100 = all killed)
Conditions: 10 µM unless noted
About 83,000 compounds went through this panel and 20% of them were active in at least one assay; those are over-represented in the sample as a whole.
metric: growth (%)
Supply the numeric figure in %, leaving out any unit text.

Incoming: What does the data say about its growth? Entry: CCCCCCCCCCCCCC(=O)C(C)N (stereo not drawn)
Outgoing: 66.9

Incoming: What does the data say about its growth? Entry: `CC1=C(NCCN2CCCC2)C(=O)c2c(OCc3cccc(Cl)c3)cccc2C1=O`
Outgoing: 14.5

Incoming: What does the data say about its growth? Entry: `CCN(C(=O)CN1CCN(c2cc3c(cc2F)c(=O)c(C(=O)O)cn3CC)CC1)c1nc(-c2ccccc2)cs1`
Outgoing: 3.3
